- study system: 293T-Dual hSTING-R232 cells (Homo sapiens, UniProt Q86WV6, H232R)
- Construct: host or cells: 293T-Dual hSTING-R232 cells (HEK 293T)
- Sequence (Q86WV6 whole entry H232R): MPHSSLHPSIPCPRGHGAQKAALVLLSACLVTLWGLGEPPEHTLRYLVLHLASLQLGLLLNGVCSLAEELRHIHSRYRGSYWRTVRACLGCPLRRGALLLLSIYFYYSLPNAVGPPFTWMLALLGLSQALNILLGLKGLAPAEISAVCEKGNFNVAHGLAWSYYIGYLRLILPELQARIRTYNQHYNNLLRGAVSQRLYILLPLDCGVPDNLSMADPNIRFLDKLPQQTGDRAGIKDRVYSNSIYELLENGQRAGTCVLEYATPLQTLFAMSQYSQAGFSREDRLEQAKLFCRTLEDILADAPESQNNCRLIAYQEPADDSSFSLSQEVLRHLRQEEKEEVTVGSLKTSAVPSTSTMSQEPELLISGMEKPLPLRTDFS
- assay text: 293T R232 cell reporter assay (HEK 293T reporter assay)
- Type: cell-based
- condition: digitonin 10 μg/mL, 30 min exposure, 20 h incubation, alkaline phosphatase reporter, read-out: EC50 [μM] IRF reporter
observable: EC50

As a guide, the following entries are already answered.
CO[C@H]1[C@H]2OP(=O)(O)OC[C@@]34C[C@@H]3[C@@H](n3ccc5c(N)ncnc53)[C@H](O)[C@@H]4OP(=O)(O)OC[C@H]1O[C@H]2n1cnc2c(=O)[nH]c(N)nc21 :: < 0.25 µM
CO[C@H]1[C@H]2OP(=O)(O)OC[C@@H]3[C@@H](OP(=O)(O)OC[C@H]1O[C@H]2n1cnc2c(=O)[nH]c(N)nc21)[C@@H](O)[C@]1(n2cnc4c(N)ncnc42)C[C@@H]31 :: < 0.25 µM

Inquiry: So what does the record say about EC50 for `Nc1nc2c(ncn2[C@@H]2O[C@@H]3COP(=O)(O)O[C@@H]4[C@@H](COP(=O)(O)O[C@H]3[C@H]2O)[C@@H]2C[C@@]2(n2cnc3c(N)ncnc32)[C@@H]4O)c(=O)[nH]1` ?
Reply text: < 0.25 µM

Inquiry: Please answer likewise for Nc1ncnc2c1ncn2C1OC2COP(=O)(S)OC3C(O)C(n4cnc5c(N)ncnc54)C4CC43COP(=O)(S)OC1C2O (single isomer, unassigned) [Compound 1-14b]
Reply text: 0.25 to 100 µM

Inquiry: What do we get for `CO[C@H]1[C@H]2OP(=O)(O)OC[C@]34C[C@@H]3[C@@H](n3cnc5c(N)ncnc53)[C@H](O)[C@@H]4OP(=O)(O)OC[C@H]1O[C@H]2c1scc2c(=O)[nH]c(N)nc12` ?
Reply text: > 100 µM

Inquiry: Please answer likewise for COC1C2COP(=O)(O)OC3C(COP(=O)(O)OC1C(c1scc4c(=O)[nH]c(N)nc14)O2)OC(n1cnc2c(N)ncnc21)C3F (stereo not drawn)
Reply text: < 0.25 µM

Inquiry: Field entry: `Nc1nc2c(ncn2[C@H]2[C@H](O)[C@@H]3OP(=O)(O)OC[C@H]4O[C@@H](n5cnc6c(N)ncnc65)[C@H](F)[C@@H]4OP(=O)(O)OC[C@@]34C[C@H]24)c(=O)[nH]1`
Reply text: < 0.25 µM

Inquiry: Now consider Nc1nc2c(ncn2C2OC34COP(=O)(O)OC5C6OCC5(COP(=O)(O)OC2C3C4)OC6n2cnc3c(N)ncnc32)c(=O)[nH]1 (stereo not drawn) .
Reply text: < 0.25 µM
